// provenance: patent US9073819B2

target: α6β2δ GABAa receptors (Homo sapiens, UniProt O14764+P47870+Q16445); construct: expressed in transfected cells; test: Agonist activity of ketamine analogues on GABAa receptors (potentiation of GABA current, oocyte expression system); assay type: cell-based; conditions: Conc. 10 (μM)
Sequence (Q16445 20-453): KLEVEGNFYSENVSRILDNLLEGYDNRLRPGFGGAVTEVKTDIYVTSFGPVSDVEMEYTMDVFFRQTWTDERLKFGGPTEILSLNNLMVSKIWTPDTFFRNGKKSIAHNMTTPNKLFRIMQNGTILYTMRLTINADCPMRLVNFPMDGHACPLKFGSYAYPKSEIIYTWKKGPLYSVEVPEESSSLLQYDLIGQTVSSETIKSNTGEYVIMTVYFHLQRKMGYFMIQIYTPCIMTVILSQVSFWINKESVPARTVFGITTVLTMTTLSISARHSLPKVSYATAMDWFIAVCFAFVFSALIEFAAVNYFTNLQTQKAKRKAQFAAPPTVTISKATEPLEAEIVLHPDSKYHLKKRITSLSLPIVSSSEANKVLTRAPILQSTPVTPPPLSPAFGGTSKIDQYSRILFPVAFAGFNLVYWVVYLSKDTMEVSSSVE
Sequence (P47870 25-512 limits assumed): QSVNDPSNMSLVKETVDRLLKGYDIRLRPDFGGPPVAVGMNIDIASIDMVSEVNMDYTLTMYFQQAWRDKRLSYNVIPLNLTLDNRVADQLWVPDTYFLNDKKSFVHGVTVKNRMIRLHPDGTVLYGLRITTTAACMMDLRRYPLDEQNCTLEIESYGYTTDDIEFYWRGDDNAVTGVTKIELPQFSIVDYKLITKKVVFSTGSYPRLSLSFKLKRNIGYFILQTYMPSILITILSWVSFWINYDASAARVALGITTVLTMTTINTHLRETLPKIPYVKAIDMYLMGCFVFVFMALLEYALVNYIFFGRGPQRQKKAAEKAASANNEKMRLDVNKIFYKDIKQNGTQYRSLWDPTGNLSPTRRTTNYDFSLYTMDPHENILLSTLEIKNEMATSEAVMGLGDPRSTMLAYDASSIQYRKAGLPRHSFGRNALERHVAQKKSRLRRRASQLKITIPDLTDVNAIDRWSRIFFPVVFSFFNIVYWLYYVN
Sequence (O14764 25-452): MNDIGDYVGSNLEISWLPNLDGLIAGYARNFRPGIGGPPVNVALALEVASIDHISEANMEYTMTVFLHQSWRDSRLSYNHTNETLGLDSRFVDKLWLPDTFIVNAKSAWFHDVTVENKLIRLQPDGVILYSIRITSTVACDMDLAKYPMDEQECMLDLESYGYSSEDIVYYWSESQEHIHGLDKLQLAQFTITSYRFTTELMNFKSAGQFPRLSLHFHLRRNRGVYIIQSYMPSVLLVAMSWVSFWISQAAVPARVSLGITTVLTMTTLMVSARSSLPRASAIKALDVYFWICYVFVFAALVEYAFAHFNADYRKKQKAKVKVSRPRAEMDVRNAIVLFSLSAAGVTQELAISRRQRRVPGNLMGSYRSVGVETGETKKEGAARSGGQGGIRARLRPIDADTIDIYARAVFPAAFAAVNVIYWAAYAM
measured.endpoint: IAverage = (IGABA + Drug/IGABA) 100 (n. amp)
Give bare numbers, in n. amp.

For orientation, consider the following solved cases.
INSERT INTO assay_data (compound, unit, reported_result) VALUES
  ('CNC1(c2ccccc2Cl)CCCCC1O (stereo not shown) [Hydroxy]', 'n. amp', 100),
  ('CNC1(c2ccccc2Cl)CCCC/C1=N\O (stereo not shown) [Oxime (Monosalt)]', 'n. amp', 128.2),
  ('CNC1(c2ccccc2Cl)CCCCC1=O (stereo not shown) [Ketamine, reference compound]', 'n. amp', 116.2);

We now examine a further compound.
Entry under review: CNC1(c2ccccc2Cl)CCCC/C1=N\O (stereo not shown) [Oxime (Disalt)] . Reported IAverage = (IGABA + Drug/IGABA) 100?
165.4
